molecular target: hDRD2 (Homo sapiens, UniProt P14416); experiment: biochemical; type: binding; parameters: expressed in transfected cells; host or cells: CHO-K1, pcDNA3.1/GS, zeocin-selected clonal line; membranes; conditions: CHO-K1 cell membranes; […] [3H]-spiperone; 60 minutes at 25°C; read-out: hDRD2 Ki (nM) ± SEM
Sequence (P14416 whole entry): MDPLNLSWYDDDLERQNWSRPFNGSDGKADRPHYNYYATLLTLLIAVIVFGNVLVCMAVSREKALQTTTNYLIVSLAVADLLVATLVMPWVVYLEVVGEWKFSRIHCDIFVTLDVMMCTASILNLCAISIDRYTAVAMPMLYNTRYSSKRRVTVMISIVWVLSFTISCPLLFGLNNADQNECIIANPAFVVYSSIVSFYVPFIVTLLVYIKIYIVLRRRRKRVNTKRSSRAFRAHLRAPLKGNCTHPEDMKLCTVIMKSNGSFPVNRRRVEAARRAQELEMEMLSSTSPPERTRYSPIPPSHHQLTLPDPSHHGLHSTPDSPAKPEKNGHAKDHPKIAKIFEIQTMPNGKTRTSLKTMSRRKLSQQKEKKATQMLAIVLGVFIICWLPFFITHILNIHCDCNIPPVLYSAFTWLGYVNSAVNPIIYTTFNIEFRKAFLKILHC
For each entry below, report its Ki value.
One number for each entry, in nM.

// below: answered compounds
# compound, measured on, recorded measurement
rows = [
    ("C[C@@H](O)[C@@H]1NC(=O)[C@H](CCCCN)NC(=O)[C@@H](Cc2c[nH]c3ccccc23)NC(=O)[C@H](Cc2ccncc2)NC(=O)[C@H](Cc2ccccc2)NC(=O)[C@H](CCCNC(=N)N)NC(=O)[C@H](NC[C@H](CCCCNC(=O)CSC[C@@H]2C[C@@H]3c4cccc5[nH]cc(c45)C[C@H]3N(C)C2)NC(=O)CSC[C@@H]2C[C@@H]3c4cccc5[nH]cc(c45)C[C@H]3N(C)C2)CCCCNC(=O)[C@H](Cc2ccc(O)cc2)NC1=O [Compound 8]", "hDRD2 (Homo sapiens, UniProt P14416)", 113),
    ("C[C@@H](O)[C@@H]1NC(=O)[C@H](CCCCN)NC(=O)[C@@H](Cc2c[nH]c3ccccc23)NC(=O)[C@H](Cc2ccncc2)NC(=O)[C@H](Cc2ccccc2)NC(=O)[C@H](CCCNC(=N)N)NC(=O)[C@H](NC[C@H](Cc2ccc(O)cc2)NC(=O)CSC[C@@H]2C[C@@H]3c4cccc5[nH]cc(c45)C[C@H]3N(C)C2)CCCCNC(=O)[C@H](Cc2ccccc2)NC1=O [Compound 4]", "hDRD2 (Homo sapiens, UniProt P14416)", 182),
]

Let us examine a further case.
Give its Ki value. Item: C[C@@H](O)[C@@H]1NC(=O)[C@H](CCCCN)NC(=O)[C@@H](Cc2c[nH]c3ccccc23)NC(=O)[C@H](Cc2ccncc2)NC(=O)[C@H](Cc2ccccc2)NC(=O)[C@H](CCCNC(=N)N)NC(=O)[C@H](NC[C@H](CCCCNC(=O)CSC[C@@H]2C[C@@H]3c4cccc5[nH]cc(c45)C[C@H]3N(C)C2)NC(=O)CSC[C@@H]2C[C@@H]3c4cccc5[nH]cc(c45)C[C@H]3N(C)C2)CCCCNC(=O)[C@H](Cc2ccccc2)NC1=O [Compound 9]
39.2
